Every entry's value here was drawn from patent US10501414B2.

Measured target: OXE receptor (Homo sapiens)
Construct: Human granulocytes (≥95% neutrophils) are prepared from whole blood; endogenous in cells; host or cells: human granulocytes (≥95% neutrophils) from whole blood
Experiment summary: Calcium mobilization in human granulocytes (inhibition of 5-oxo-ETE-induced calcium mobilization)
Assay type: cell-based
Particulars: 5-oxo-ETE-induced calcium mobilization; read-out: potency (IC50) in the picomolar range
pIC50: −log10 of the molar value.
Reported property: pIC50

C[C@H](CC(=O)O)CC(=O)c1c(CCCCCCc2cccc(Cl)c2)n(C)c2ccc(Cl)cc12 :: ~11.10
CC(CC(=O)O)CC(=O)c1c(CCCCCCc2cccc(Cl)c2)n(C)c2ccc(Cl)cc12 (racemic) :: ~10.48
CC(CC(=O)O)CC(=O)c1c(CCCCCCc2cccc(F)c2)n(C)c2ccc(Cl)cc12 (racemic) :: ~10.14

Return reported pIC50; argument: COc1cccc(CCCCCCc2c(C(=O)CC(C)CC(=O)O)c3cc(Cl)ccc3n2C)c1 (racemic)
~10.07

###

Measured target: OXE receptor (Homo sapiens, UniProt Q8TDS5)
Construct: Human granulocytes (≥95% neutrophils) are prepared from whole blood; endogenous in cells; host or cells: human granulocytes (≥95% neutrophils) from whole blood
Sequence (Q8TDS5 whole entry): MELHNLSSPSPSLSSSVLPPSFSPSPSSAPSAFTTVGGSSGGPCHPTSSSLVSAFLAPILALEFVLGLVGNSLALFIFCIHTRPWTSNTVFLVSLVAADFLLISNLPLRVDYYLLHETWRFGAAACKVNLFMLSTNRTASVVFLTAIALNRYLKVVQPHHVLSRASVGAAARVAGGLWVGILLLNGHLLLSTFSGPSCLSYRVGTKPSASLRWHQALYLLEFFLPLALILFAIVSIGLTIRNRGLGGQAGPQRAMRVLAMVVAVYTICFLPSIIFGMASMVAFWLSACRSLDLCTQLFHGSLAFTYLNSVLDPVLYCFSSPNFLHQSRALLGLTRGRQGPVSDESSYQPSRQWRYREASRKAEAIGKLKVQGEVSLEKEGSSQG
Experiment summary: Calcium mobilization in human granulocytes (inhibition of 5-oxo-ETE-induced calcium mobilization)
Assay type: cell-based
Particulars: inhibition of calcium mobilization induced by 5-oxo-ETE (10 nM) in human granulocytes; bracketed figure in cell = n; read-out: IC50
pIC50: −log10 of the molar value.
Reported property: pIC50

Worked examples follow.
COc1ccccc1CCCCCCc1c(C(=O)CC(C)CC(=O)O)c2cc(Cl)ccc2n1C (stereo not shown) :: 9.74
COc1ccccc1CCCCCCc1c(C(=O)C[C@H](C)CC(=O)O)c2cc(Cl)ccc2n1C :: 10.00
COc1ccc(CCCCCCc2c(C(=O)CC(C)CC(=O)O)c3cc(Cl)ccc3n2C)cc1 (stereo not shown) :: 9.20
CC(=O)CCCCc1c(C(=O)CC(C)CC(=O)O)c2cc(Cl)ccc2n1C (stereo not shown) [Met b V230 (ω-1)oxo, reference compound] :: 5.72

P. C[C@@H](CC(=O)O)CC(=O)c1c(CCCCCCc2cccc(Cl)c2)n(C)c2ccc(Cl)cc12 (single isomer, unassigned)
Q. CC(CC(=O)O)CC(=O)c1c(CCCCCCc2cccc(Cl)c2)n(C)c2ccc(Cl)cc12 (racemic)
R. C[C@H](CC(=O)O)CC(=O)c1c(C(O)CCCCCc2ccc(F)cc2)n(C)c2ccc(Cl)cc12 (stereo partly shown) [Compound 54M]
Sort (3 molecules) by pIC50: min first. Answer format: the labels, ordered as requested.
R, P, Q

###

Measured target: OXE receptor (Homo sapiens, UniProt Q8TDS5)
Construct: Human granulocytes (≥95% neutrophils) are prepared from whole blood; endogenous in cells; host or cells: human granulocytes (≥95% neutrophils) from whole blood
Experiment summary: Calcium mobilization in human granulocytes (inhibition of 5-oxo-ETE-induced calcium mobilization)
Format: cell-based
Particulars: inhibition of calcium mobilization induced by 5-oxo-ETE (10 nM) in human granulocytes; bracketed figure in cell = n; read-out: IC50
Reported property: IC50 (nM)

a. CC(CC(=O)O)CC(=O)c1c(CCCCCCc2ccccc2Cl)n(C)c2ccc(Cl)cc12 (centres unmarked) [Compound 17]
b. CC(CC(=O)O)CC(=O)c1c(CCCCCCc2ccccc2)n(C)c2ccc(Cl)cc12 (racemic) [Compound 15]
c. C[C@H](CC(=O)O)CC(=O)c1c(CCCCCCc2cccc(Cl)c2)n(C)c2ccc(Cl)cc12 [Compound 50]
d. CC(CC(=O)O)CC(=O)c1c(CCCCc2ccccc2)n(C)c2ccc(Cl)cc12 (racemic) [Compound 13]
e. C[C@@H](CC(=O)O)CC(=O)c1c(CCCCCCc2ccccc2)n(C)c2ccc(Cl)cc12 (single isomer, unassigned) [Compound 61]
Order required: smallest reported IC50 first, largest last, for all compounds above. Put the labels in the requested order and list them out.
c, b, a, e, d
(c: 0.0081 nM, b: 0.18 nM, a: 0.44 nM, e: 23 nM, d: 38 nM)
